test system: 931267-113-T-J1-PDC multicell spheroid viability; assay: Anticancer human tumor 931267-113-T-J1-PDC patient-derived colon adenocarcinoma cell line growth inhibition [PI3K]; conditions: second compound 1 µM; first compound 0.949 µM; active = viability on the fitted dose curve at most 10% of control; inactive = the rest
Labels: active, inactive

INSERT INTO assay_data (compound, answer_label) VALUES
  ('Cn1cnc2c(F)c(Nc3ccc(Br)cc3Cl)c(C(=O)NOCCO)cc21 + CC(Nc1ccc2c(c1)OCCn1cc(N3C(=O)OCC3C(F)F)nc1-2)C(N)=O', 'active'),
  ('Cn1cnc2c(F)c(Nc3ccc(Br)cc3Cl)c(C(=O)NOCCO)cc21 + Cc1nc(NC(=O)N2CCCC2C(N)=O)sc1-c1ccnc(C(C)(C)C(F)(F)F)c1', 'inactive'),
  ('Cn1cnc2c(F)c(Nc3ccc(Br)cc3Cl)c(C(=O)NOCCO)cc21 + COc1c(OCCCN2CCOCC2)ccc2c3n(c(=NC(=O)c4cnc(N)nc4)nc12)CCN3', 'active'),
  ('Cn1cnc2c(F)c(Nc3ccc(Br)cc3Cl)c(C(=O)NOCCO)cc21 + CC(Nc1ncnc2nc[nH]c12)c1cc2cccc(Cl)c2c(=O)n1-c1ccccc1', 'inactive');

====

Recorded viability, T/C by entry
system: 931267-113-T-J1-PDC multicell spheroid viability; test: Anticancer human tumor 931267-113-T-J1-PDC cell line growth inhibition [PI3K]; settings: second compound 0.316 µM; first compound 0.1 µM; stronger effect = lower value;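 also: viability read 7 days after compound addition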
test-readout: viability, T/C (%)

INSERT INTO results (compound, numeric_result) VALUES
  ('CC1(C)CCC(CN2CCN(c3ccc(C(=O)NS(=O)(=O)c4ccc(NCC5CCOCC5)c([N+](=O)[O-])c4)c(Oc4cnc5[nH]ccc5c4)c3)CC2)=C(c2ccc(Cl)cc2)C1 + Cc1nc(NC(=O)N2CCCC2C(N)=O)sc1-c1ccnc(C(C)(C)C(F)(F)F)c1', 101),
  ('Cn1ncnc1[C@H]1c2n[nH]c(=O)c3cc(F)cc(c23)N[C@@H]1c1ccc(F)cc1 + CC(Nc1ccc2c(c1)OCCn1cc(N3C(=O)OCC3C(F)F)nc1-2)C(N)=O', 94.1),
  ('Cn1ncnc1[C@H]1c2n[nH]c(=O)c3cc(F)cc(c23)N[C@@H]1c1ccc(F)cc1 + Cc1nc(NC(=O)N2CCCC2C(N)=O)sc1-c1ccnc(C(C)(C)C(F)(F)F)c1', 89.8);

====

tested on: 931267-113-T-J1-PDC multicell spheroid viability; experiment: Anticancer human tumor 931267-113-T-J1-PDC cell line growth inhibition [PI3K]; conditions: second compound 1 µM; first compound 0.000316 µM; stronger effect = lower value;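 also: viability read 7 days after compound addition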
Note to self: viability, T/C under 40% means 1, ties and anything higher get -1.

INSERT INTO results (molecule, answer_label) VALUES
  ('CC(C)n1nc(-c2ccc3oc(N)nc3c2)c2c(N)ncnc21 + COc1c(OCCCN2CCOCC2)ccc2c3n(c(=NC(=O)c4cnc(N)nc4)nc12)CCN3', 1),
  ('CC(C)n1nc(-c2ccc3oc(N)nc3c2)c2c(N)ncnc21 + Cc1nc(NC(=O)N2CCCC2C(N)=O)sc1-c1ccnc(C(C)(C)C(F)(F)F)c1', -1),
  ('CC(=O)c1c(C)c2cnc(Nc3ccc(N4CCNCC4)cn3)nc2n(C2CCCC2)c1=O + COc1c(OCCCN2CCOCC2)ccc2c3n(c(=NC(=O)c4cnc(N)nc4)nc12)CCN3', 1),
  ('Cn1ncnc1[C@H]1c2n[nH]c(=O)c3cc(F)cc(c23)N[C@@H]1c1ccc(F)cc1 + COc1c(OCCCN2CCOCC2)ccc2c3n(c(=NC(=O)c4cnc(N)nc4)nc12)CCN3', 1),
  ('CC(C)n1nc(-c2ccc3oc(N)nc3c2)c2c(N)ncnc21 + CC(Nc1ccc2c(c1)OCCn1cc(N3C(=O)OCC3C(F)F)nc1-2)C(N)=O', -1),
  ('CC(=O)c1c(C)c2cnc(Nc3ccc(N4CCNCC4)cn3)nc2n(C2CCCC2)c1=O + CC(Nc1ncnc2nc[nH]c12)c1cc2cccc(Cl)c2c(=O)n1-c1ccccc1', -1);

====

tested on: 931267-113-T-J1-PDC multicell spheroid viability; assay: Anticancer human tumor 931267-113-T-J1-PDC cell line growth inhibition [PI3K]; conditions: second compound 3.16 µM; first compound 1 µM; stronger effect = lower value;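 also: viability read 7 days after compound addition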
test-readout: viability, T/C (%)

INSERT INTO assay_data (compound, tested_target, numeric_result) VALUES
  ('CC1(C)CCC(Nc2ncc(C(F)(F)F)c(-c3c[nH]c4c(P(C)(C)=O)c(C#N)ccc34)n2)CN1 (stereo not given) + CC(Nc1ncnc2nc[nH]c12)c1cc2cccc(Cl)c2c(=O)n1-c1ccccc1', '931267-113-T-J1-PDC multicell spheroid viability', 87),
  ('CCN1CCN(Cc2ccc(Nc3ncc(F)c(-c4cc(F)c5nc(C)n(C(C)C)c5c4)n3)nc2)CC1 + Cc1nc(NC(=O)N2CCCC2C(N)=O)sc1-c1ccnc(C(C)(C)C(F)(F)F)c1', '931267-113-T-J1-PDC multicell spheroid viability', 59.4),
  ('CNC(=O)c1ccc(N2C(=S)N(c3ccc(C#N)c(C(F)(F)F)c3)C(=O)C2(C)C)cc1F + CC(Nc1ncnc2nc[nH]c12)c1cc2cccc(Cl)c2c(=O)n1-c1ccccc1', '931267-113-T-J1-PDC multicell spheroid viability', 103),
  ('C[C@@H](NC(=O)c1ncnc(N)c1Cl)c1ncc(C(=O)Nc2cc(C(F)(F)F)c(Cl)cn2)s1 + CC(Nc1ncnc2nc[nH]c12)c1cc2cccc(Cl)c2c(=O)n1-c1ccccc1', '931267-113-T-J1-PDC multicell spheroid viability', 95.8),
  ('Cn1ncc(Cl)c1-c1cc(C(=O)NC(CN)Cc2cccc(F)c2)sc1Cl (stereo not given) + Cc1nc(NC(=O)N2CCCC2C(N)=O)sc1-c1ccnc(C(C)(C)C(F)(F)F)c1', '931267-113-T-J1-PDC multicell spheroid viability', 63.8);

====

test system: 931267-113-T-J1-PDC multicell spheroid viability; test: Anticancer human tumor 931267-113-T-J1-PDC cell line growth inhibition [PI3K]; conditions: second compound 0.0316 µM; first compound 1 µM; stronger effect = lower value;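 also: viability read 7 days after compound addition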
test-readout: viability, T/C (%)

INSERT INTO assay_data (compound, tested_target, test_readout, numeric_result) VALUES
  ('CNC(=O)c1ccc(N2C(=S)N(c3ccc(C#N)c(C(F)(F)F)c3)C(=O)C2(C)C)cc1F + CC(Nc1ncnc2nc[nH]c12)c1cc2cccc(Cl)c2c(=O)n1-c1ccccc1', '931267-113-T-J1-PDC multicell spheroid viability', 'viability, T/C', 97.2),
  ('CNC(=O)c1ccc(N2C(=S)N(c3ccc(C#N)c(C(F)(F)F)c3)C(=O)C2(C)C)cc1F + COc1c(OCCCN2CCOCC2)ccc2c3n(c(=NC(=O)c4cnc(N)nc4)nc12)CCN3', '931267-113-T-J1-PDC multicell spheroid viability', 'viability, T/C', 86.8),
  ('CCN1CCN(Cc2ccc(Nc3ncc(F)c(-c4cc(F)c5nc(C)n(C(C)C)c5c4)n3)nc2)CC1 + Cc1nc(NC(=O)N2CCCC2C(N)=O)sc1-c1ccnc(C(C)(C)C(F)(F)F)c1', '931267-113-T-J1-PDC multicell spheroid viability', 'viability, T/C', 86.2),
  ('CCN1CCN(Cc2ccc(Nc3ncc(F)c(-c4cc(F)c5nc(C)n(C(C)C)c5c4)n3)nc2)CC1 + CC(Nc1ncnc2nc[nH]c12)c1cc2cccc(Cl)c2c(=O)n1-c1ccccc1', '931267-113-T-J1-PDC multicell spheroid viability', 'viability, T/C', 90.2),
  ('C[C@@H](NC(=O)c1ncnc(N)c1Cl)c1ncc(C(=O)Nc2cc(C(F)(F)F)c(Cl)cn2)s1 + CC(Nc1ccc2c(c1)OCCn1cc(N3C(=O)OCC3C(F)F)nc1-2)C(N)=O', '931267-113-T-J1-PDC multicell spheroid viability', 'viability, T/C', 110);

====

tested on: 931267-113-T-J1-PDC multicell spheroid viability; test: Anticancer human tumor 931267-113-T-J1-PDC cell line growth inhibition [PI3K]; conditions: second compound 1 µM; first compound 0.00949 µM; stronger effect = lower value;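 also: viability read 7 days after compound addition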
test-readout: viability, T/C (%)

INSERT INTO measurements (compound, tested_target, test_readout, numeric_result) VALUES
  ('Cn1cnc2c(F)c(Nc3ccc(Br)cc3Cl)c(C(=O)NOCCO)cc21 + CC(Nc1ncnc2nc[nH]c12)c1cc2cccc(Cl)c2c(=O)n1-c1ccccc1', '931267-113-T-J1-PDC multicell spheroid viability', 'viability, T/C', 88.8),
  ('Cn1cnc2c(F)c(Nc3ccc(Br)cc3Cl)c(C(=O)NOCCO)cc21 + CC(Nc1ccc2c(c1)OCCn1cc(N3C(=O)OCC3C(F)F)nc1-2)C(N)=O', '931267-113-T-J1-PDC multicell spheroid viability', 'viability, T/C', 63.1),
  ('Cn1cnc2c(F)c(Nc3ccc(Br)cc3Cl)c(C(=O)NOCCO)cc21 + Cc1nc(NC(=O)N2CCCC2C(N)=O)sc1-c1ccnc(C(C)(C)C(F)(F)F)c1', '931267-113-T-J1-PDC multicell spheroid viability', 'viability, T/C', 66.4),
  ('Cn1cnc2c(F)c(Nc3ccc(Br)cc3Cl)c(C(=O)NOCCO)cc21 + COc1c(OCCCN2CCOCC2)ccc2c3n(c(=NC(=O)c4cnc(N)nc4)nc12)CCN3', '931267-113-T-J1-PDC multicell spheroid viability', 'viability, T/C', 26.2);
